Cited source for all entries: patent US20100120789A1

Documented inhibition at 10 µM across a set of molecules
Target: Human 11β-HSD1 (Homo sapiens, UniProt P28845)
Sequence (P28845 whole entry): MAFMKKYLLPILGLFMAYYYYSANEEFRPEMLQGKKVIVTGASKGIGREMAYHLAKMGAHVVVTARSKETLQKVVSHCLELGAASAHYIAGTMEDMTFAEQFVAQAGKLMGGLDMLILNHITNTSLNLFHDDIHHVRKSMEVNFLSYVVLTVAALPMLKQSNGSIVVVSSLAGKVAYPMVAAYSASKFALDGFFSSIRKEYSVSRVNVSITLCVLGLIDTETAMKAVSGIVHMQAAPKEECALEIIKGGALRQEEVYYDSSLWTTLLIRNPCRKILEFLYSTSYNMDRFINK
Experiment: 11β-HSD1 HTRF assay (human liver microsome fractions, cortisol by HTRF)
Assay type: biochemical
Conditions: 10 μM compound; human liver microsomes

Use the examples below as a reference point.
| molecule | value |
| --- | --- |
| O=C(CNc1ccc(Cl)cc1)C12CC3CC(CC(C3)C1)C2 | > 60% |
| O=C(NCCc1cccnc1)C12CC3CC(CC(C3)C1)C2 | > 60% |
| O=S(=O)(Cc1cccc(Cl)c1)NC12CC3CC(CC(C3)C1)C2 | 20 to 60% |
| CN1CCCC1CCNC(=O)C12CC3CC(CC(C3)C1)C2 (centres unmarked) | > 60% |

Shift focus to the following entry.
Need inhibition at 10 µM, item Cc1nc2c(Cl)c(NC(=O)C34CC5CC(CC(C5)C3)C4)ccc2s1
20 to 60%

###

Documented melting point across a set of molecules

Use the examples below as a reference point.
| molecule | melting point |
| --- | --- |
| O=C(CC12CC3CC(CC(C3)C1)C2)N1CCN(Cc2ccc(Cl)cc2)CC1 [STX2402] | 119 to 121 °C |
| O=C(NCCc1cccs1)NC12CC3CC(CC(C3)C1)C2 [STX1714] | 138 to 142 °C |
| Cc1cccc(CN2CCN(C(=O)C34CC5CC(CC(C5)C3)C4)CC2)c1 | 185 to 187 °C |

Need melting point, item O=C(Cc1ccc(OCC(=O)C23CC4CC(CC(C4)C2)C3)cc1)Nc1ccccc1
153.4 °C

Likewise for Cc1nc2c(Cl)c(NC(=O)C34CC5CC(CC(C5)C3)C4)ccc2s1 [STX1373] ?
183.5 to 185.5 °C

Likewise for CN(Cc1ccsc1)C(=O)CC12CC3CC(CC(C3)C1)C2 [STX2406] ?
69 to 71 °C

###

quantityName: melting point

Use the examples below as a reference point.
| testSmiles | melting point |
| --- | --- |
| COc1cc2c(cc1O)CCN(C(=O)CC13CC4CC(CC(C4)C1)C3)C2 | 169 to 172 °C |
| Cn1ccnc1S(=O)(=O)CC(=O)C12CC3CC(CC(C3)C1)C2 | 124 to 125 °C |
| O=C(CS(=O)(=O)c1cccs1)C12CC3CC(CC(C3)C1)C2 | 117.5 to 119 °C |
| O=C(Nc1ccccc1)c1ccc(OCC(=O)C23CC4CC(CC(C4)C2)C3)cc1 | 184.3 °C |
| O=C(NC12CC3CC(CC(C3)C1)C2)OCCc1cccs1 | 67 to 69 °C |

Shift focus to the following entry.
Need melting point, item COc1cc2c(cc1OC)CN(C(=O)C13CC4CC(CC(C4)C1)C3)CC2
151 to 155 °C

###

Target: Human 11β-HSD1 (Homo sapiens)
Assay: 11β-HSD1 HEK assay (whole HEK 293 cells stably transfected with HSD11B1, SPA)
Format: cell-based
Parameters: expressed in transfected cells; host or cells: HEK 293
Conditions: HEK293, read-out: % INHIBITION of Human 11 β-HSD1 at 10 μM (HEK)
quantityName: inhibition at 10 µM

| compound | inhibition at 10 µM |
| --- | --- |
| O=S(=O)(Cc1ccc(Cl)cc1)NC12CC3CC(CC(C3)C1)C2 | < 20% |
| CN(Cc1cccs1)C(=O)C(C)(C)C | < 20% |
| O=C(NCc1cccs1)C12CC3CC(CC1C3)C2 | > 60% |

Need inhibition at 10 µM, item CN1CCCC1CCNC(=O)C12CC3CC(CC(C3)C1)C2 (stereo not shown)
< 20%

Likewise for O=C(NCCc1cccs1)[C@@H]1CC2C=CC1C2 (stereo partly shown) ?
20 to 60%
